Entries with reported IC50 on UniProt:P56817
Sequence (P56817 whole entry): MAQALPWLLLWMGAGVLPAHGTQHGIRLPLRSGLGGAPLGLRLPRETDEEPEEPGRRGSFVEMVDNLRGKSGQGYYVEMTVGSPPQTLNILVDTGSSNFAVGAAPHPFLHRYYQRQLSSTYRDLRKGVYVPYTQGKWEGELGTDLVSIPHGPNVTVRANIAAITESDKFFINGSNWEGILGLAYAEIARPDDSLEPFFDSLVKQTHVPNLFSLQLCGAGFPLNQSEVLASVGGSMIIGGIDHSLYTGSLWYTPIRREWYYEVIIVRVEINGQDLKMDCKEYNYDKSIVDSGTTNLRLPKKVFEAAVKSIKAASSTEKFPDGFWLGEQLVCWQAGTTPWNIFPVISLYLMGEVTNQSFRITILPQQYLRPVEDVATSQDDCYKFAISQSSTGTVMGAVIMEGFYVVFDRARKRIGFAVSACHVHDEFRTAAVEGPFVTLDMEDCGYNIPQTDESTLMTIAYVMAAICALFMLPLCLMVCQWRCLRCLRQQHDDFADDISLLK

{"columns": ["substanceSmiles", "modifier", "IC50 / µM"],
 "data": [
  ["Cc1ccc2oc(=O)c(C(=O)NCCCCCCNc3c4c(nc5ccccc35)CCCC4)cc2c1", ">", 100],
  ["O=C(NCCCCCNc1c2c(nc3ccccc13)CCCC2)c1cc2ccccc2oc1=O", "=", 40.1],
  ["COc1ccc2oc(=O)c(C(=O)NCCCCCCCNc3c4c(nc5ccccc35)CCCC4)cc2c1", "=", 20.2],
  ["O=C(NCCCCCCNc1c2c(nc3ccccc13)CCCC2)c1cc2ccccc2oc1=O", "=", 17.2],
  ["O=C(NCCCCCCNc1c2c(nc3ccccc13)CCCC2)c1cc2cc(OC(F)(F)F)ccc2oc1=O", "=", 22.6],
  ["Cc1ccc2oc(=O)c(C(=O)NCCCCCCCNc3c4c(nc5ccccc35)CCCC4)cc2c1", "=", 42.8]
]}

====

The entries below are paired with their reported Ki.
- measurementTarget: Acetylcholinesterase (Homo sapiens)
- Sequence (P22303 whole entry): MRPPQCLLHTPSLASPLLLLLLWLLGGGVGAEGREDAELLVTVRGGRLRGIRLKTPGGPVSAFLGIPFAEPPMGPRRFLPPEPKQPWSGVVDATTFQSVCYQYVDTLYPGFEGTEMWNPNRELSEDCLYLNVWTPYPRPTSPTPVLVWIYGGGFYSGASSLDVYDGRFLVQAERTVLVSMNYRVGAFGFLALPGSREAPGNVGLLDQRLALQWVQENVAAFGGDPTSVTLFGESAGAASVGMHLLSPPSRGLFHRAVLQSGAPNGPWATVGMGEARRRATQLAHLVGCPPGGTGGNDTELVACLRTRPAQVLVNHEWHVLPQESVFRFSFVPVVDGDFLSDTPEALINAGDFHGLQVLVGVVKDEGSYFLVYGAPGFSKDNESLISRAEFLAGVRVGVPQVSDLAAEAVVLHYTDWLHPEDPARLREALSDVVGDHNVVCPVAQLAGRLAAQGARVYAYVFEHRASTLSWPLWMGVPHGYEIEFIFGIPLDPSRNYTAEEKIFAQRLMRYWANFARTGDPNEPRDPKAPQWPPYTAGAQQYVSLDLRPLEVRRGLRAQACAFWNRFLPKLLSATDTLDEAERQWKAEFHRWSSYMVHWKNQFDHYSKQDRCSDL
measure: Ki (nM)

{"columns": ["substanceSmiles", "measurementTarget", "quantitativeReadout"],
 "data": [
  ["O=C(NCCCCCCNc1c2c(nc3ccccc13)CCCC2)c1cc2cc(OC(F)(F)F)ccc2oc1=O", "Acetylcholinesterase (Homo sapiens)", 59.6],
  ["O=C(NCCCCCNc1c2c(nc3ccccc13)CCCC2)c1cc2cc(OC(F)(F)F)ccc2oc1=O", "Acetylcholinesterase (Homo sapiens)", 76.1],
  ["COc1ccc2oc(=O)c(C(=O)NCCCCCCNc3c4c(nc5ccccc35)CCCC4)cc2c1", "Acetylcholinesterase (Homo sapiens)", 24.3],
  ["O=C(NCCCCCNc1c2c(nc3ccccc13)CCCC2)c1cc2ccccc2oc1=O", "Acetylcholinesterase (Homo sapiens)", 34.4],
  ["Cc1ccc2oc(=O)c(C(=O)NCCCCCCNc3c4c(nc5ccccc35)CCCC4)cc2c1", "Acetylcholinesterase (Homo sapiens)", 30.1],
  ["Cc1ccc2oc(=O)c(C(=O)NCCCCCNc3c4c(nc5ccccc35)CCCC4)cc2c1", "Acetylcholinesterase (Homo sapiens)", 35.8],
  ["COc1ccc2cc(C(=O)NCCCCCCCNc3c4c(nc5ccccc35)CCCC4)c(=O)oc2c1", "Acetylcholinesterase (Homo sapiens)", 55.2],
  ["COc1ccc2cc(C(=O)NCCCCCCNc3c4c(nc5ccccc35)CCCC4)c(=O)oc2c1", "Acetylcholinesterase (Homo sapiens)", 30.9],
  ["O=C(NCCCCCCCNc1c2c(nc3ccccc13)CCCC2)c1cc2cc(OC(F)(F)F)ccc2oc1=O", "Acetylcholinesterase (Homo sapiens)", 78.2]
]}

====

- measurementTarget: Amyloid-beta precursor protein (Homo sapiens, UniProt P05067)
- Sequence (P05067 whole entry): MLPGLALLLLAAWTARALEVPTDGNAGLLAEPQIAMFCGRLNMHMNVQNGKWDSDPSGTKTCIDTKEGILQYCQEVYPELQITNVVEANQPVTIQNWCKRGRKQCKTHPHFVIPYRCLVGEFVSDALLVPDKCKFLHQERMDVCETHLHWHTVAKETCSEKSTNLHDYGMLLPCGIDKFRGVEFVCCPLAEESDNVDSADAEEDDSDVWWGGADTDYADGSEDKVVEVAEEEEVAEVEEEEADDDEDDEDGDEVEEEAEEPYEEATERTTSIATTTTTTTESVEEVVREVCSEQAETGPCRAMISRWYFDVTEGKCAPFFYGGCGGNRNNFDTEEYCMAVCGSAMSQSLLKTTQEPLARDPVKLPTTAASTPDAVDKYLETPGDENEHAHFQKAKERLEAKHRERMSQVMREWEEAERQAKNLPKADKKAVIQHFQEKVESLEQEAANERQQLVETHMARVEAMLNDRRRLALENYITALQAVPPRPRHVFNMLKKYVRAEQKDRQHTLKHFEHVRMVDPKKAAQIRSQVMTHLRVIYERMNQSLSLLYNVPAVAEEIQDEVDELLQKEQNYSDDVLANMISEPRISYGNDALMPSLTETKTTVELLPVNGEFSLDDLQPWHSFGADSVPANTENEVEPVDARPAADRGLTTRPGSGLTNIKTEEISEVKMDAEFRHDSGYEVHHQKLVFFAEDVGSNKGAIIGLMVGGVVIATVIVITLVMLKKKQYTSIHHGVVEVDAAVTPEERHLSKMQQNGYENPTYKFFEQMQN
pIC50: −log10 of the molar value.
Property: pIC50; scope: individual compounds

{"columns": ["substanceSmiles", "modifier", "pIC50"],
 "data": [
  ["COc1ccc2oc(=O)c(C(=O)NCCCCCCCNc3c4c(nc5ccccc35)CCCC4)cc2c1", "=", 4.87],
  ["Cc1ccc2oc(=O)c(C(=O)NCCCCCCCNc3c4c(nc5ccccc35)CCCC4)cc2c1", "=", 5.21],
  ["Cc1ccc2oc(=O)c(C(=O)NCCCCCCNc3c4c(nc5ccccc35)CCCC4)cc2c1", "=", 5.30],
  ["O=C(NCCCCCCNc1c2c(nc3ccccc13)CCCC2)c1cc2ccccc2oc1=O", "<", 4.00],
  ["O=C(NCCCCCNc1c2c(nc3ccccc13)CCCC2)c1cc2ccccc2oc1=O", "<", 4.00],
  ["O=C(NCCCCCCNc1c2c(nc3ccccc13)CCCC2)c1cc2cc(OC(F)(F)F)ccc2oc1=O", "=", 4.62]
]}
